TGI reference
# Test system: HT29 colon
# Experimental protocol: NCI tumour cell line growth inhibition, 48 h
Where a SMILES comes first, the peptide text is derived from it. [ ]: non-standard residue; d: D form. The star is where a group is joined. NMeF = CN[CH](Cc1ccccc1)C(=O)O; NMeV = CN[CH](C(=O)O)C(C)C; Boc = CC(C)(C)OC(=O)*; OBn = c1ccc(CO*)cc1
Quantity measured: TGI

Compound	Subject of test	Quantity measured	Result
O=C(N/C(=C\c1ccc([N+](=O)[O-])cc1)c1nc2[nH]c(=S)[nH]c(=O)c2[nH]1)c1ccccc1	HT29 colon	TGI	> 100 µM
[N-]=[N+]=C1CNC(=O)NC1=O	HT29 colon	TGI	> 100 µM
CC(C)C(NC(=O)OC(C)(C)C)C(=O)N(C)C(Cc1ccccc1)C(=O)N(C)C(C(=O)N(C)C(C(=O)OCc1ccccc1)C(C)C)C(C)C (centres undefined) (Boc-V[NMeF][NMeV][NMeV]-OBn; configuration not given here)	HT29 colon	TGI	> 100 µM
CCOC(=O)N(CC)c1c(C(F)(F)F)cc(-c2ccccc2)[nH]c1=O	HT29 colon	TGI	> 100 µM
N=C1N=C(N)c2cc3c(cc21)SCCSCCCSCCS3	HT29 colon	TGI	> 48.6 µM
Cc1ccc(O)c(Cc2nc3ccccc3nc2-c2cccc(Br)c2)c1	HT29 colon	TGI	> 100 µM
O=C(CCc1cc(O)cc(O)c1)NCCc1ccc(O)c(O)c1	HT29 colon	TGI	> 100 µM
CC(=O)Nc1ccc(-c2nnc(SCC(=O)Nc3ccccc3[N+](=O)[O-])o2)cc1	HT29 colon	TGI	> 100 µM
Sc1nnc(-c2ccccc2Nc2ccccc2-c2nnc(S)n2-c2ccccc2)n1-c1ccccc1	HT29 colon	TGI	> 100 µM
